All values here come from patent US11932633B2.

Biological target: KRas G12C (Homo sapiens, UniProt P01116, C118S/C51S/C80L/G12C)
Construct: GDP-loaded K-Ras (1-169) G12C, C51S, C80L, C118S
Experiment: KRas G12C Modification Assay (LCMS detection of covalent adduct)
Assay type: binding
Conditions: 5 μM concentration for 3 hours
Known POC (normalized percent of control, covalent modification of KRas G12C) of a selection of compounds

Please review the entries below; each comes with its answer.
[[record]]
structureassmiles = "C=CC(=O)N1CC(CN2C(=O)CSc3cc(-c4cc(O)cc5ccccc45)ccc32)C1"
result = "102% of control"

[[record]]
structureassmiles = "C=CC(=O)N1CC(CN2C(=O)COc3cc(-c4cccc5ccccc45)c(Cl)cc32)C1"
result = "90% of control"

[[record]]
structureassmiles = "C=CC(=O)N1CC(CN2C(=O)COc3c2cc(Cl)c(-c2cc(O)cc4ccccc24)c3F)C1"
result = "100% of control"


# next compound below
-- ask Returns the measured POC (normalized percent of control, covalent modification of KRas G12C) for the input compound. Input: `C=CC(=O)N1CC(C)(CN2C(=O)COc3cc(-c4cc(O)cc5ccccc45)c(Cl)cc32)C1`
-- reply 85% of control
